Could you please report measured viability, T/C for the items listed next?
System: 242566-281-R-J2-PDC complex spheroid viability
Assay: Anticancer human tumor 242566-281-R-J2-PDC patient-derived pancreatic carcinoma cell line growth inhibition [RAS]
Details: second compound 0.003 µM; first compound 10 µM; active compounds read low
Answers are plain numbers, in %.

CC1(O)CCCC1n1c(=O)c(C(F)F)cc2cnc(NC3CCN(S(C)(=O)=O)CC3)nc21 (centres undefined) + CCn1c(-c2cccnc2C(C)OC)c2c3cc(ccc31)N1CCOC(CC(NC(=O)C(C(C)C)N(C)C(=O)C3(F)CCN(C(=O)C#CC(C)(C)N(C)C)CC3)C(=O)N3CCCC(N3)C(=O)OCC(C)(C)C2)C1 | 23.6
Cc1nc(N2CCC3(CC2)COC(C)C3N)c(CO)nc1Sc1ccnc(N)c1Cl (centres undefined) + CCn1c(-c2cccnc2C(C)OC)c2c3cc(ccc31)N1CCOC(CC(NC(=O)C(C(C)C)N(C)C(=O)C3(F)CCN(C(=O)C#CC(C)(C)N(C)C)CC3)C(=O)N3CCCC(N3)C(=O)OCC(C)(C)C2)C1 | 52.8

List the reported viability, T/C of each compound below.
1. CC1(O)CCCC1n1c(=O)c(C(F)F)cc2cnc(NC3CCN(S(C)(=O)=O)CC3)nc21 (centres undefined) + CCn1c(-c2cc(N3CCN(C)CC3)cnc2C(C)OC)c2c3cc(ccc31)-c1csc(n1)CC(NC(=O)C1CC1C)C(=O)N1CCCC(N1)C(=O)OCC(C)(C)C2
2. NC1c2ccccc2OC12CCN(c1cnc3c(N4CCCc5ncccc54)n[nH]c3n1)CC2 (centres undefined) + CCn1c(-c2cc(N3CCN(C)CC3)cnc2C(C)OC)c2c3cc(ccc31)-c1csc(n1)CC(NC(=O)C1CC1C)C(=O)N1CCCC(N1)C(=O)OCC(C)(C)C2

Response:
1. 17.2
2. 6.57

###

Test system: 242566-281-R-J2-PDC complex spheroid viability
Assay: Anticancer human tumor 242566-281-R-J2-PDC cell line growth inhibition [RAS];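 also: spheroids exposed to compound for 7 days before readout; 100% = DMSO vehicle control wells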
Conditions: second compound 0.0949 µM; first compound 0.1 µM; active compounds read low
measurementName: viability, T/C (%)
Give bare numbers, in %.

O=C(c1ccc(F)c(F)c1Nc1ccc(I)cc1F)N1CC(O)([C@@H]2CCCCN2)C1 + CCn1c(-c2cc(N3CCN(C)CC3)cnc2C(C)OC)c2c3cc(ccc31)-c1csc(n1)CC(NC(=O)C1CC1C)C(=O)N1CCCC(N1)C(=O)OCC(C)(C)C2 | 14.1

Please find the next molecule below.
Query: Provide measured viability, T/C on 242566-281-R-J2-PDC complex spheroid viability for NC1c2ccccc2OC12CCN(c1cnc3c(N4CCCc5ncccc54)n[nH]c3n1)CC2 (configuration not stated) + CCn1c(-c2cccnc2C(C)OC)c2c3cc(ccc31)N1CCOC(CC(NC(=O)C(C(C)C)N(C)C(=O)C3(F)CCN(C(=O)C#CC(C)(C)N(C)C)CC3)C(=O)N3CCCC(N3)C(=O)OCC(C)(C)C2)C1 please.
Response: 71.7

###

System: 242566-281-R-J2-PDC complex spheroid viability
Experiment: Anticancer human tumor 242566-281-R-J2-PDC cell line growth inhibition [RAS];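 also: spheroids exposed to compound for 7 days before readout; 100% = DMSO vehicle control wells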
Details: second compound 0.0949 µM; first compound 0.316 µM; active compounds read low
I'd be grateful if you could share measured viability, T/C for these entries.
Numbers only, in %.

CC(C)NCC(C(=O)N1CCN(c2ncnc3c2C(C)CC3O)CC1)c1ccc(Cl)cc1 (stereo not drawn) + CCn1c(-c2cc(N3CCN(C)CC3)cnc2C(C)OC)c2c3cc(ccc31)-c1csc(n1)CC(NC(=O)C1CC1C)C(=O)N1CCCC(N1)C(=O)OCC(C)(C)C2 | 22.1

Look up viability, T/C for the entries below, preserving their order.
1. CC(=O)OC12COC1CC(O)C1(C)C(=O)C(O)C3=C(C)C(OC(=O)C(O)C(NC(=O)OC(C)(C)C)c4ccccc4)CC(O)(C(OC(=O)c4ccccc4)C21)C3(C)C (stereo not drawn) + CCn1c(-c2cccnc2C(C)OC)c2c3cc(ccc31)N1CCOC(CC(NC(=O)C(C(C)C)N(C)C(=O)C3(F)CCN(C(=O)C#CC(C)(C)N(C)C)CC3)C(=O)N3CCCC(N3)C(=O)OCC(C)(C)C2)C1
2. CC1(O)CCCC1n1c(=O)c(C(F)F)cc2cnc(NC3CCN(S(C)(=O)=O)CC3)nc21 (stereo not drawn) + CCn1c(-c2cc(N3CCN(C)CC3)cnc2C(C)OC)c2c3cc(ccc31)-c1csc(n1)CC(NC(=O)C1CC1C)C(=O)N1CCCC(N1)C(=O)OCC(C)(C)C2
3. Nc1ccn(C2OC(CO)C(O)C2(F)F)c(=O)n1 (stereo not drawn) + CCn1c(-c2cc(N3CCN(C)CC3)cnc2C(C)OC)c2c3cc(ccc31)-c1csc(n1)CC(NC(=O)C1CC1C)C(=O)N1CCCC(N1)C(=O)OCC(C)(C)C2
4. C=CC(=O)N1CCN(c2nc(OCC3CCCN3C)nc3c(F)c(-c4nc(N)cc(C)c4C(F)(F)F)c(Cl)cc23)C(C)C1 (stereo not drawn) + CCn1c(-c2cccnc2C(C)OC)c2c3cc(ccc31)N1CCOC(CC(NC(=O)C(C(C)C)N(C)C(=O)C3(F)CCN(C(=O)C#CC(C)(C)N(C)C)CC3)C(=O)N3CCCC(N3)C(=O)OCC(C)(C)C2)C1
5. CCC(CC)c1cc(NC2CCC(N)C2)n2nccc2n1 (stereo not drawn) + CCn1c(-c2cc(N3CCN(C)CC3)cnc2C(C)OC)c2c3cc(ccc31)-c1csc(n1)CC(NC(=O)C1CC1C)C(=O)N1CCCC(N1)C(=O)OCC(C)(C)C2
6. CC(Nc1ccc2c(c1)OCCn1cc(N3C(=O)OCC3C(F)F)nc1-2)C(N)=O (stereo not drawn) + CCn1c(-c2cc(N3CCN(C)CC3)cnc2C(C)OC)c2c3cc(ccc31)-c1csc(n1)CC(NC(=O)C1CC1C)C(=O)N1CCCC(N1)C(=O)OCC(C)(C)C2

Response:
1: 31.4; 2: 22; 3: 11.7; 4: 87; 5: 23.2; 6: 7.81

Query: Hello, please tell me recorded viability, T/C for this one: C=CC(=O)Nc1cc(Nc2nccc(-c3cn(C)c4ccccc34)n2)c(OC)cc1N(C)CCN(C)C + CCn1c(-c2cccnc2C(C)OC)c2c3cc(ccc31)N1CCOC(CC(NC(=O)C(C(C)C)N(C)C(=O)C3(F)CCN(C(=O)C#CC(C)(C)N(C)C)CC3)C(=O)N3CCCC(N3)C(=O)OCC(C)(C)C2)C1
Response: 61.3
